- system-tested: UniProt:P35372
- Sequence (P35372 whole entry): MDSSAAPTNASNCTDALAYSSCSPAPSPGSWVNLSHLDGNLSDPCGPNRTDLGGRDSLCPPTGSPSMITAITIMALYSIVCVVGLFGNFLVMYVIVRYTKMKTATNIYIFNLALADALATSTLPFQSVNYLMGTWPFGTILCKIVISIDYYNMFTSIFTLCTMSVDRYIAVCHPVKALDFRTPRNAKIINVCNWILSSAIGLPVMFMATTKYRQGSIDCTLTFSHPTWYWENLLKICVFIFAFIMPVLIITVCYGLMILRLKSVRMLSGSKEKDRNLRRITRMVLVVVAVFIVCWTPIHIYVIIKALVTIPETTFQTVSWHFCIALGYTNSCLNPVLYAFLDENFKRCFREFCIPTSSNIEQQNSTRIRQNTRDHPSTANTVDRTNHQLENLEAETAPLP
- method-summary: Affinity for the human μ-opiate receptor ([3H]-naloxone displacement, SPA, CHO-K1 membrane preparation)
- Type: binding
- condition-context: 1 μM test substance; inhibition of specific [3H]-naloxone binding; read-out: μ-Opioid receptor, % inhibition [1 μM]
Counter-ions that a name gives are not always drawn.
property-label: inhibition at 1 µM (%)

{"molecule": "CN(C)C(c1ccccc1)C1CCC(NC(=O)Nc2cccc3ccccc23)CC1 (centres unmarked)", "system-tested": "UniProt:P35372", "property-label": "inhibition at 1 µM", "unit-descriptor": "%", "numeric-value": 96}
{"molecule": "CN(C)C(c1ccc(F)cc1)C1CCC(CC=O)CC1 (centres unmarked)", "system-tested": "UniProt:P35372", "property-label": "inhibition at 1 µM", "unit-descriptor": "%", "numeric-value": 34}
{"molecule": "CN(C)C(c1ccccc1)C1CCC(NC(=O)Nc2cccc(C(F)(F)F)c2)CC1 (centres unmarked) [compound 75, hydrochloride]", "system-tested": "UniProt:P35372", "property-label": "inhibition at 1 µM", "unit-descriptor": "%", "numeric-value": 88}
{"molecule": "CN(C)C(c1ccc(Cl)cc1)C1CCC(O)(Cc2ccccc2)CC1 (centres unmarked)", "system-tested": "UniProt:P35372", "property-label": "inhibition at 1 µM", "unit-descriptor": "%", "numeric-value": 83}
{"molecule": "CN(C)C(c1ccc(F)cc1)C1CCC(CCO)CC1 (centres unmarked)", "system-tested": "UniProt:P35372", "property-label": "inhibition at 1 µM", "unit-descriptor": "%", "numeric-value": 18}
{"molecule": "CN(C)C(c1cccc(F)c1)C1CCC(O)(c2ccc(Cl)c(C(F)(F)F)c2)CC1 (centres unmarked)", "system-tested": "UniProt:P35372", "property-label": "inhibition at 1 µM", "unit-descriptor": "%", "numeric-value": 72}
{"molecule": "CN(C)C(c1ccccc1)C1CCC(OCc2ccc(F)cc2)CC1 (centres unmarked) [compound 145, hydrochloride]", "system-tested": "UniProt:P35372", "property-label": "inhibition at 1 µM", "unit-descriptor": "%", "numeric-value": 73}
{"molecule": "CN(C)C(c1ccccc1)[C@H]1CC[C@H](CCc2ccccc2)CC1 (relative stereo) [compound 146, hydrochloride]", "system-tested": "UniProt:P35372", "property-label": "inhibition at 1 µM", "unit-descriptor": "%", "numeric-value": 97}

* * *

Here, each record is paired with measured pKi data.
- system-tested: Serotonin (5HT) reuptake (Rattus norvegicus, UniProt P31652)
- Construct: synaptosomes are freshly isolated from areas of rat brain; from tissue; host or cells: rat brain synaptosomes (P2 fraction)
- Sequence (P31652 whole entry): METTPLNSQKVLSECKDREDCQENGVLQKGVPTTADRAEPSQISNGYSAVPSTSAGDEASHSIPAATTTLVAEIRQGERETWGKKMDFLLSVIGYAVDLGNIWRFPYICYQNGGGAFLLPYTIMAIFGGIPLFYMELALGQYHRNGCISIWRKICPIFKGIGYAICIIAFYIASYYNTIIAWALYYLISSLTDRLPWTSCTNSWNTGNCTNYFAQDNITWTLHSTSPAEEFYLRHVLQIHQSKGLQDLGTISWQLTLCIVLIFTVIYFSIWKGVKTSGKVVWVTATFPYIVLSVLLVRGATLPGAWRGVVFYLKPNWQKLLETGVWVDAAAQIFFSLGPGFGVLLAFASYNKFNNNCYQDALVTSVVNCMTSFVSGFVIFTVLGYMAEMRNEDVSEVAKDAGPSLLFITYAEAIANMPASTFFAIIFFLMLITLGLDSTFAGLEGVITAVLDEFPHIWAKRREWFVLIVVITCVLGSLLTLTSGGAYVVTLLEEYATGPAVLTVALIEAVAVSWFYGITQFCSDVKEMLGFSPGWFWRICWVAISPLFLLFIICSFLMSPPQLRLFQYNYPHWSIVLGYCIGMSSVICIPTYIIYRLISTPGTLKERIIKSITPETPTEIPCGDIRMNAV
- method-summary: Serotonin (5HT) reuptake inhibition in rat brain synaptosomes (P2 fraction)
- Type: biochemical
pKi: −log10 of the molar value. Counter-ions that a name gives are not always drawn.

{"molecule": "CCC(=O)N(CCCCc1ccccc1)C1CCC(C(c2ccccc2)N(C)C)CC1 (centres unmarked) [compound 97, hydrochloride]", "system-tested": "Serotonin (5HT) reuptake (Rattus norvegicus, UniProt P31652)", "pKi": 6.00}
{"molecule": "CN(C)C(c1ccccc1)C1CCC(NC(=O)Nc2ccc(F)cc2F)CC1 (centres unmarked) [compound 74, hydrochloride]", "system-tested": "Serotonin (5HT) reuptake (Rattus norvegicus, UniProt P31652)", "pKi": 6.92}
{"molecule": "CN(C)C(c1ccccc1)C1CCC(OCc2ccc(F)cc2)CC1 (centres unmarked) [compound 145, hydrochloride]", "system-tested": "Serotonin (5HT) reuptake (Rattus norvegicus, UniProt P31652)", "pKi": 6.54}
{"molecule": "CC(=O)N(Cc1ccccc1)C1CCC(C(c2ccccc2)N(C)C)CC1 (centres unmarked) [compound 100, hydrochloride]", "system-tested": "Serotonin (5HT) reuptake (Rattus norvegicus, UniProt P31652)", "pKi": 6.28}
{"molecule": "CN(C)C(c1ccccc1)C1CCC(O)(Cc2ccc(F)cc2)CC1 (centres unmarked) [compound 148, hydrochloride]", "system-tested": "Serotonin (5HT) reuptake (Rattus norvegicus, UniProt P31652)", "pKi": 6.43}
{"molecule": "COc1ccc(N(C(C)=O)C2CCC(C(c3ccccc3)N(C)C)CC2)cc1 (centres unmarked) [compound 99, hydrochloride]", "system-tested": "Serotonin (5HT) reuptake (Rattus norvegicus, UniProt P31652)", "pKi": 6.27}
{"molecule": "CCC(CC)C(=O)NC1CCC(C(c2ccccc2)N(C)C)CC1 (centres unmarked) [compound 93, hydrochloride]", "system-tested": "Serotonin (5HT) reuptake (Rattus norvegicus, UniProt P31652)", "pKi": 6.18}
{"molecule": "CC(=O)N(c1ccccc1)C1CCC(C(c2ccccc2)N(C)C)CC1 (centres unmarked) [compound 96, hydrochloride]", "system-tested": "Serotonin (5HT) reuptake (Rattus norvegicus, UniProt P31652)", "pKi": 6.18}
{"molecule": "CN(C)C(c1ccccc1)C1CCC(N(Cc2ccccc2)C(=O)c2ccc(F)cc2)CC1 (centres unmarked) [compound 103, hydrochloride]", "system-tested": "Serotonin (5HT) reuptake (Rattus norvegicus, UniProt P31652)", "pKi": 6.25}
{"molecule": "CCOC(=O)C=C1CCC(C(c2cccc(F)c2)N(C)C)CC1 (centres unmarked) [compound 129]", "system-tested": "Serotonin (5HT) reuptake (Rattus norvegicus, UniProt P31652)", "pKi": 7.07}
{"molecule": "CN(C)C(c1ccccc1)[C@H]1CC[C@H](CCc2ccccc2)CC1 (relative stereo) [compound 146, hydrochloride]", "system-tested": "Serotonin (5HT) reuptake (Rattus norvegicus, UniProt P31652)", "pKi": 6.82}
{"molecule": "CCOC(=O)CCC1CCC(C(c2ccc(F)cc2)N(C)C)CC1 (centres unmarked) [compound 136]", "system-tested": "Serotonin (5HT) reuptake (Rattus norvegicus, UniProt P31652)", "pKi": 7.08}
{"molecule": "CCCC(=O)N(Cc1ccccc1)C1CCC(C(c2ccccc2)N(C)C)CC1 (centres unmarked) [compound 102, hydrochloride]", "system-tested": "Serotonin (5HT) reuptake (Rattus norvegicus, UniProt P31652)", "pKi": 6.35}
{"molecule": "CN(C)C(c1ccccc1)C1CCC(NC(=O)NC2CCCCC2)CC1 (centres unmarked) [compound 80]", "system-tested": "Serotonin (5HT) reuptake (Rattus norvegicus, UniProt P31652)", "pKi": 6.60}
{"molecule": "CCOC(=O)CCC1CCC(C(c2cccc(F)c2)N(C)C)CC1 (centres unmarked) [compound 139]", "system-tested": "Serotonin (5HT) reuptake (Rattus norvegicus, UniProt P31652)", "pKi": 7.24}
{"molecule": "CN(C)C(c1cccc(F)c1)C1CCC(CN)CC1 (centres unmarked) [compound 36]", "system-tested": "Serotonin (5HT) reuptake (Rattus norvegicus, UniProt P31652)", "pKi": 7.02}
{"molecule": "CCOC(=O)C=CC1CCC(C(c2cccc(F)c2)N(C)C)CC1 (centres unmarked) [compound 138]", "system-tested": "Serotonin (5HT) reuptake (Rattus norvegicus, UniProt P31652)", "pKi": 6.51}
{"molecule": "COc1ccc(NC(=O)NC2CCC(C(c3ccccc3)N(C)C)CC2)cc1 (centres unmarked) [compound 82]", "system-tested": "Serotonin (5HT) reuptake (Rattus norvegicus, UniProt P31652)", "pKi": 6.96}
{"molecule": "CN(C)C(c1ccccc1)C1CCC(NC(=O)NCc2ccccc2)CC1 (centres unmarked) [compound 79]", "system-tested": "Serotonin (5HT) reuptake (Rattus norvegicus, UniProt P31652)", "pKi": 7.04}
{"molecule": "CCOC(=O)C=CC1CCC(C(c2ccc(F)cc2)N(C)C)CC1 (centres unmarked) [compound 135]", "system-tested": "Serotonin (5HT) reuptake (Rattus norvegicus, UniProt P31652)", "pKi": 6.66}
{"molecule": "CCOC(=O)CCC1CCC(C(c2ccccc2)N(C)C)CC1 (centres unmarked) [compound 133]", "system-tested": "Serotonin (5HT) reuptake (Rattus norvegicus, UniProt P31652)", "pKi": 7.00}
{"molecule": "CCOC(=O)CC1CCC(C(c2cccc(F)c2)N(C)C)CC1 (centres unmarked) [compound 130]", "system-tested": "Serotonin (5HT) reuptake (Rattus norvegicus, UniProt P31652)", "pKi": 7.80}
{"molecule": "CN(C)C(c1ccccc1)C1CCC(NC(=O)Nc2ccccc2)CC1.Cl (centres unmarked) [compound 78, hydrochloride]", "system-tested": "Serotonin (5HT) reuptake (Rattus norvegicus, UniProt P31652)", "pKi": 6.80}
{"molecule": "CCC(CC)C(=O)N(Cc1ccccc1)C1CCC(C(c2ccccc2)N(C)C)CC1 (centres unmarked) [compound 101, hydrochloride]", "system-tested": "Serotonin (5HT) reuptake (Rattus norvegicus, UniProt P31652)", "pKi": 6.06}
{"molecule": "CN(C)C(c1ccccc1)C1CCC(NC(=O)Nc2cccc3ccccc23)CC1 (centres unmarked) [compound 73]", "system-tested": "Serotonin (5HT) reuptake (Rattus norvegicus, UniProt P31652)", "pKi": 7.21}
{"molecule": "CN(C)C(c1ccccc1)C1CCC(N(Cc2ccccc2)C(=O)c2ccccc2)CC1 (centres unmarked) [compound 104, hydrochloride]", "system-tested": "Serotonin (5HT) reuptake (Rattus norvegicus, UniProt P31652)", "pKi": 6.36}
